The reported numbers originate from paper PMC3280530.

test system: JAr cells; experiment: MTT cell viability assay; assay type: cell-based; details: Homo sapiens, 24 h
property_label: pIC50
pIC50 here: minus log base 10 of the concentration, concentration in moles per litre.

CSC1=Nc2cc(Br)ccc2C1=O: 3.93

Would you kindly look at the next entry?
Request: Would you please give the reported pIC50 of `O=C1Nc2cc(Br)ccc2C1=O` with JAr cells?
Response: 3.35

---

test system: primary-derived human reproductive granulosa cells (HGC); assay: MTT cell viability assay; type: cell-based; conditions: Homo sapiens; HGC, MTT, 4 h
property_label: pIC50
pIC50 here: minus log base 10 of the concentration, concentration in moles per litre.

Request: Entry CSC1=Nc2cc(Br)ccc2C1=O [Tyrindoleninone, tyrindoleninone] needs its pIC50 filled in; supply it.
Response: 2.45

---

tested on: KGN cells; test: MTT cell viability assay; format: cell-based, human; details: Homo sapiens, 4 h
Below is a list of entries, each paired with its recorded pIC50 value.
pIC50 here: minus log base 10 of the concentration, concentration in moles per litre.

CSC1=Nc2cc(Br)ccc2C1=O: 4.41

Would you kindly look at the next entry?
Request: Would you please give the reported pIC50 of `O=C1Nc2cc(Br)ccc2C1=O` with KGN cells?
Response: 3.75

---

Test system: primary-derived human reproductive granulosa cells (HGC)
Test: MTT cell viability assay
Type: cell-based
Settings: Homo sapiens; HGC, MTT, 72 h
Description: For cell assays, the D. orbita fractions were prepared fresh on the day of the experiment by dissolving in dimethyl sulfoxide (DMSO; 100%) at 100× the final concentration. These were diluted to a range of working concentrations (0.001–0.5 mg/mL) in complete cell assay medium to give a final working concentration per well of 1% DMSO. All samples were filtered through a […] (Sartorius) filter before use. […]
Below is a list of entries, each paired with its recorded pIC50 value.
pIC50 here: minus log base 10 of the concentration, concentration in moles per litre.

O=C1Nc2cc(Br)ccc2C1=O: 2.65

Would you kindly look at the next entry?
Request: Entry `CSC1=Nc2cc(Br)ccc2C1=O` needs its pIC50 filled in; supply it.
Response: 2.81

---

system: OVCAR-3 cells; assay: MTT cell viability assay; assay type: cell-based, human; conditions: Homo sapiens, OVCAR-3, 4 h, OVCAR-3, MTT, 4 h
Below is a list of entries, each paired with its recorded IC50 value.
Please reply with the bare figure in µM and do not write the unit itself.

CSC1=Nc2cc(Br)ccc2C1=O [Tyrindoleninone, tyrindoleninone]: 156

Request: Entry O=C1Nc2cc(Br)ccc2C1=O [6-Bromoisatin, 6-bromoisatin] needs its IC50 filled in; supply it.
Response: 402
